Collected pIC50 values appear next to each entry.
- tested-target: NAMPT (human, recombinant, C-terminally His-tagged) (Homo sapiens, UniProt P43490)
- Sequence (P43490 whole entry): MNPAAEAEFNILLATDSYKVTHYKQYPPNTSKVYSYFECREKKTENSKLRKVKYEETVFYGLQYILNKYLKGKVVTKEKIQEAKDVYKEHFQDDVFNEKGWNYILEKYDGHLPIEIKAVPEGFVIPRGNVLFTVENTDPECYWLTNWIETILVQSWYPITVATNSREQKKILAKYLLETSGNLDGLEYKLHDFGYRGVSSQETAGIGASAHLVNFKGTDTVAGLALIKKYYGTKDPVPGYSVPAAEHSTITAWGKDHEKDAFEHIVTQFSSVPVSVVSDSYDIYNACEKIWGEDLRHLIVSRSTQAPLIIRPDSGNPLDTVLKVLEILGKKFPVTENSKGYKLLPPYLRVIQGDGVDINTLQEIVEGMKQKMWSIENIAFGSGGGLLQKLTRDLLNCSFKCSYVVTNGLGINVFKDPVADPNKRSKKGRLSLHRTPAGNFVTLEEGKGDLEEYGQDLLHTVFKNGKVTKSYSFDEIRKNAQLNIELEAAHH
- assay-explanation: Time-Resolved Fluorescence Resonance Energy Transfer (TR-FRET) Binding Assay of NAMPT
- experimental-conditions: absence of substrates; 6.8 nM NAMPT, 200 nM probe, equilibrated 3 hours
pIC50 is defined as minus the log10 of a concentration measured in mol/L.

Note down pIC50 recorded for COCCN(C(=O)Cc1cccnc1)c1ncc(C(=O)NCCCn2ccnc2)s1 [Example 184]
6.12

Note down pIC50 recorded for CCOCCNC(=O)N(Cc1ccc(F)cc1)c1ncc(C(=O)NCCCn2ccnc2)s1 [Example 83]
5.54

Note down pIC50 recorded for O=C(NCCCn1ccnc1)c1cnc(N(Cc2ccc(F)cc2)C(=O)c2cccc(Cl)c2)s1 [Example 12]
6.52

Note down pIC50 recorded for CC(C)CCN(C(=O)C1CCOC1)c1ncc(C(=O)NCCCn2ccnc2)s1 (centres unmarked) [Example 155]
6.17

Note down pIC50 recorded for O=C(NCCCn1ccnc1)c1cnc(N(Cc2ccc(F)cc2)Cc2ccccc2Cl)s1 [Example 16]
5.33

Note down pIC50 recorded for COCCC(=O)N(CCC(C)C)c1ncc(C(=O)NCCCn2ccnc2)s1 [Example 150]
6.60
